src = patent US11718645B2

procedure-text: Microsomal stability
Format: in vitro ADME, mouse
test-settings: microsomes + NADPH, 5 min
Here, each record is paired with measured % remaining data.
Provide the reading as a plain figure in %.

Here are 3 compounds together with their reported answers.
{"compound": "CC[C@H](C)[C@H]1C(=O)N2CCC[C@@H]2C(=O)O[C@H](C(C)(C)C)C[C@@H](C)C[C@H](O)[C@H](C)C2=N[C@H](CCC(=O)N[C@@H](Cc3ccc(OC)cc3)C(=O)N(C)[C@@H](C)C(=O)N1C)CS2 [apratoxin S9 (BN), Apratoxin S9]", "unit-string": "%", "val": 17.80}
{"compound": "CC[C@H](C)[C@H]1C(=O)N2CCC[C@@H]2C(=O)O[C@H](C(C)(C)C)C[C@@H](C)C[C@H](O)CC2=N[C@@H](CCC(=O)N[C@@H](Cc3ccc(OC)cc3)C(=O)N(C)[C@@H](C)C(=O)N1C)CS2 [apratoxin S7 (BL), Apratoxin S7]", "unit-string": "%", "val": 18.70}
{"compound": "CC[C@H](C)[C@H]1C(=O)N2CCC[C@H]2C(=O)O[C@H](C(C)(C)C)C[C@@H](C)C[C@H](O)[C@H](C)C2=N[C@@H](CCC(=O)N[C@@H](Cc3ccc(OC)cc3)C(=O)N(C)[C@@H](C)C(=O)N1C)CS2 [apratoxin S4 (BK), Apratoxin S4]", "unit-string": "%", "val": 32.20}

What % remaining value was documented for this compound, CC[C@H](C)[C@H]1C(=O)N2CCC[C@@H]2C(=O)O[C@H](C(C)(C)C)C[C@@H](C)C[C@H](O)C(C)(C)C2=N[C@@H](CCC(=O)N[C@@H](Cc3ccc(OC)cc3)C(=O)N(C)[C@@H](C)C(=O)N1C)CS2 [apratoxin S8 (BM), Apratoxin S8] ?
17.30

====

Tested on: HCT116 cells
procedure-text: Cell viability assay (MTT)
Format: cell-based, human
test-settings: determined after 48 h (n = 4)
Here, each record is paired with measured IC50 data.
Provide the reading as a plain figure in nM.

{"query-smiles": "CC[C@H](C)[C@H]1C(=O)N2CCC[C@@H]2C(=O)O[C@H](C(C)(C)C)C[C@@H](C)C[C@H](O)C(C)(C)C2=N[C@@H](CCC(=O)N[C@@H](Cc3ccc(OC)cc3)C(=O)N(C)[C@@H](C)C(=O)N1C)CS2", "IC50, nM": 1.99}
{"query-smiles": "CC[C@H](C)[C@H]1C(=O)N2CCC[C@@H]2C(=O)O[C@H](C(C)(C)C)C[C@@H](C)C[C@H](O)CC2=N[C@@H](CCC(=O)N[C@@H](Cc3ccc(OC)cc3)C(=O)N(C)[C@@H](C)C(=O)N1C)CS2", "IC50, nM": 1.25}
{"query-smiles": "CC[C@H](C)[C@H]1C(=O)N2CCC[C@H]2C(=O)O[C@H](C(C)(C)C)C[C@@H](C)C[C@H](O)[C@H](C)C2=N[C@@H](CCC(=O)N[C@@H](Cc3ccc(OC)cc3)C(=O)N(C)[C@@H](C)C(=O)N1C)CS2", "IC50, nM": 1.43}

Let us move to another entry and its IC50.
What IC50 value was documented for this compound, CC[C@H](C)[C@H]1C(=O)N2CCC[C@@H]2C(=O)O[C@H](C(C)(C)C)C[C@@H](C)C[C@H](O)[C@H](C)C2=N[C@H](CCC(=O)N[C@@H](Cc3ccc(OC)cc3)C(=O)N(C)[C@@H](C)C(=O)N1C)CS2 ?
0.69

====

procedure-text: Microsomal stability
Format: in vitro ADME, mouse
test-settings: microsomes only, 120 min
parameter: % remaining (%)
Provide the reading as a plain figure in %.

Here are 3 compounds together with their reported answers.
{"compound": "CC[C@H](C)[C@H]1C(=O)N2CCC[C@@H]2C(=O)O[C@H](C(C)(C)C)C[C@@H](C)C[C@H](O)C(C)(C)C2=N[C@@H](CCC(=O)N[C@@H](Cc3ccc(OC)cc3)C(=O)N(C)[C@@H](C)C(=O)N1C)CS2 [apratoxin S8 (BM), Apratoxin S8]", "val": 70.05}
{"compound": "CC[C@H](C)[C@H]1C(=O)N2CCC[C@@H]2C(=O)O[C@H](C(C)(C)C)C[C@@H](C)C[C@H](O)[C@H](C)C2=N[C@H](CCC(=O)N[C@@H](Cc3ccc(OC)cc3)C(=O)N(C)[C@@H](C)C(=O)N1C)CS2 [apratoxin S9 (BN), Apratoxin S9]", "val": 56.25}
{"compound": "CC[C@H](C)[C@H]1C(=O)N2CCC[C@H]2C(=O)O[C@H](C(C)(C)C)C[C@@H](C)C[C@H](O)[C@H](C)C2=N[C@@H](CCC(=O)N[C@@H](Cc3ccc(OC)cc3)C(=O)N(C)[C@@H](C)C(=O)N1C)CS2 [apratoxin S4 (BK), Apratoxin S4]", "val": 55.25}

What % remaining value was documented for this compound, CC[C@H](C)[C@H]1C(=O)N2CCC[C@@H]2C(=O)O[C@H](C(C)(C)C)C[C@@H](C)C[C@H](O)CC2=N[C@@H](CCC(=O)N[C@@H](Cc3ccc(OC)cc3)C(=O)N(C)[C@@H](C)C(=O)N1C)CS2 [apratoxin S7 (BL), Apratoxin S7] ?
53.85

====

procedure-text: Microsomal stability
Assay type: in vitro ADME, mouse
test-settings: microsomes + NADPH, 3 min
parameter: % remaining (%)
Provide the reading as a plain figure in %.

Here are 2 molecules together with their reported answers.
{"query-smiles": "CC[C@H](C)[C@H]1C(=O)N2CCC[C@@H]2C(=O)O[C@H](C(C)(C)C)C[C@@H](C)C[C@H](O)[C@H](C)C2=N[C@H](CCC(=O)N[C@@H](Cc3ccc(OC)cc3)C(=O)N(C)[C@@H](C)C(=O)N1C)CS2", "unit-string": "%", "val": 51.40}
{"query-smiles": "CC[C@H](C)[C@H]1C(=O)N2CCC[C@H]2C(=O)O[C@H](C(C)(C)C)C[C@@H](C)C[C@H](O)[C@H](C)C2=N[C@@H](CCC(=O)N[C@@H](Cc3ccc(OC)cc3)C(=O)N(C)[C@@H](C)C(=O)N1C)CS2", "unit-string": "%", "val": 39.55}

What % remaining value was documented for this molecule, CC[C@H](C)[C@H]1C(=O)N2CCC[C@@H]2C(=O)O[C@H](C(C)(C)C)C[C@@H](C)C[C@H](O)C(C)(C)C2=N[C@@H](CCC(=O)N[C@@H](Cc3ccc(OC)cc3)C(=O)N(C)[C@@H](C)C(=O)N1C)CS2 ?
37.20

What % remaining value was documented for this molecule, CC[C@H](C)[C@H]1C(=O)N2CCC[C@@H]2C(=O)O[C@H](C(C)(C)C)C[C@@H](C)C[C@H](O)CC2=N[C@@H](CCC(=O)N[C@@H](Cc3ccc(OC)cc3)C(=O)N(C)[C@@H](C)C(=O)N1C)CS2 ?
54.95

====

procedure-text: Microsomal stability
Format: in vitro ADME, mouse
test-settings: microsomes + NADPH, 120 min
parameter: % remaining (%)
Provide the reading as a plain figure in %.

{"query-smiles": "CC[C@H](C)[C@H]1C(=O)N2CCC[C@@H]2C(=O)O[C@H](C(C)(C)C)C[C@@H](C)C[C@H](O)[C@H](C)C2=N[C@H](CCC(=O)N[C@@H](Cc3ccc(OC)cc3)C(=O)N(C)[C@@H](C)C(=O)N1C)CS2", "unit-string": "%", "% remaining": 5.63}

What % remaining value was documented for this molecule, CC[C@H](C)[C@H]1C(=O)N2CCC[C@@H]2C(=O)O[C@H](C(C)(C)C)C[C@@H](C)C[C@H](O)CC2=N[C@@H](CCC(=O)N[C@@H](Cc3ccc(OC)cc3)C(=O)N(C)[C@@H](C)C(=O)N1C)CS2 ?
4.30

What % remaining value was documented for this molecule, CC[C@H](C)[C@H]1C(=O)N2CCC[C@H]2C(=O)O[C@H](C(C)(C)C)C[C@@H](C)C[C@H](O)[C@H](C)C2=N[C@@H](CCC(=O)N[C@@H](Cc3ccc(OC)cc3)C(=O)N(C)[C@@H](C)C(=O)N1C)CS2 ?
6.02

What % remaining value was documented for this molecule, CC[C@H](C)[C@H]1C(=O)N2CCC[C@@H]2C(=O)O[C@H](C(C)(C)C)C[C@@H](C)C[C@H](O)C(C)(C)C2=N[C@@H](CCC(=O)N[C@@H](Cc3ccc(OC)cc3)C(=O)N(C)[C@@H](C)C(=O)N1C)CS2 ?
5.01

====

Here, each record is paired with measured % remaining data.
procedure-text: Microsomal stability
Assay type: in vitro ADME, mouse
test-settings: microsomes + NADPH, 30 min

Here are 3 compounds together with their reported answers.
{"query-smiles": "CC[C@H](C)[C@H]1C(=O)N2CCC[C@@H]2C(=O)O[C@H](C(C)(C)C)C[C@@H](C)C[C@H](O)[C@H](C)C2=N[C@H](CCC(=O)N[C@@H](Cc3ccc(OC)cc3)C(=O)N(C)[C@@H](C)C(=O)N1C)CS2", "% remaining": "3.73 ± 0.25%"}
{"query-smiles": "CC[C@H](C)[C@H]1C(=O)N2CCC[C@H]2C(=O)O[C@H](C(C)(C)C)C[C@@H](C)C[C@H](O)[C@H](C)C2=N[C@@H](CCC(=O)N[C@@H](Cc3ccc(OC)cc3)C(=O)N(C)[C@@H](C)C(=O)N1C)CS2", "% remaining": "9.58 ± 1.03%"}
{"query-smiles": "CC[C@H](C)[C@H]1C(=O)N2CCC[C@@H]2C(=O)O[C@H](C(C)(C)C)C[C@@H](C)C[C@H](O)CC2=N[C@@H](CCC(=O)N[C@@H](Cc3ccc(OC)cc3)C(=O)N(C)[C@@H](C)C(=O)N1C)CS2", "% remaining": "6.10 ± 1.96%"}

What % remaining value was documented for this compound, CC[C@H](C)[C@H]1C(=O)N2CCC[C@@H]2C(=O)O[C@H](C(C)(C)C)C[C@@H](C)C[C@H](O)C(C)(C)C2=N[C@@H](CCC(=O)N[C@@H](Cc3ccc(OC)cc3)C(=O)N(C)[C@@H](C)C(=O)N1C)CS2 ?
4.83 ± 1.05%
